assay: Water-solubility test; format: physicochemical; details: water, pH 5.5, water, thermodynamic from solid; 22° C., ultrasonic mixing for 24 hours, pH5.5, average of two experiments
TEST READOUT: solubility at 24 h (µg/mL)
Numbers only, in µg/mL.

In [3]: df
Out[3]:
                                 smiles_str        test_readout  assay_result
0  Cc1cccc(NC(=O)Nc2ccc(-c3cncc4[nH]nc(N)c34)c3ccccc23)c1  solubility at 24 h        0.0925

Prompt line: Answer with the recorded solubility at 24 h of Cc1ccc(F)c(NC(=O)Nc2ccc(-c3ccc(OCCCN4CCCC4)c4[nH]nc(N)c34)c3ccccc23)c1 only.
Response line: 0.64

Each recorded value in this set is attributed to patent US9469639B2.
